Recorded solubility by entry
# ASSAY_PROTOCOL: physchem
# CONDITIONS_USED: aqueous, pH 7.4

[
  {
    "MOLECULE": "NS(=O)(=O)c1ccc(-c2cnn3cc(-c4ccc(CN5CCCC5)cc4)cnc23)c2ccccc12",
    "QUAL": "=",
    "solubility (µg/mL)": 8
  },
  {
    "MOLECULE": "CC(N)c1ccc(-c2cnc3c(-c4ccc(S(N)(=O)=O)c5ccccc45)cnn3c2)cc1 (stereo unspecified)",
    "QUAL": "=",
    "solubility (µg/mL)": 7.6
  },
  {
    "MOLECULE": "CC(c1ccc(-c2cnc3c(-c4ccc(S(N)(=O)=O)c5ccccc45)cnn3c2)cc1)N1CCCC1 (stereo unspecified)",
    "QUAL": "=",
    "solubility (µg/mL)": 7
  },
  {
    "MOLECULE": "CC(C)(CN1CCCCC1)Oc1ccc(-c2cnc3c(-c4ccc(S(N)(=O)=O)c5ccccc45)cnn3c2)cc1",
    "QUAL": "<",
    "solubility (µg/mL)": 1
  },
  {
    "MOLECULE": "NS(=O)(=O)c1ccc(-c2cnn3cc(-c4ccc(OCCN5CCCCC5)nc4)cnc23)c2ccccc12",
    "QUAL": "<",
    "solubility (µg/mL)": 1
  },
  {
    "MOLECULE": "NS(=O)(=O)c1ccc(-c2cnn3cc(-c4ccc(OCCN5CCCC5)cc4)cnc23)c2ccccc12",
    "QUAL": "=",
    "solubility (µg/mL)": 33
  },
  {
    "MOLECULE": "NC1(c2ccc(-c3cnc4c(-c5ccc(S(N)(=O)=O)c6ccccc56)cnn4c3)cc2)CCC1",
    "QUAL": "<",
    "solubility (µg/mL)": 1
  },
  {
    "MOLECULE": "NS(=O)(=O)c1ccc(-c2cnn3cc(-c4ccc(C5CCNCC5)cc4)cnc23)c2ccccc12",
    "QUAL": "<",
    "solubility (µg/mL)": 1
  },
  {
    "MOLECULE": "CC(C)(N)c1ccc(-c2cnc3c(-c4ccc(S(N)(=O)=O)c5ccccc45)cnn3c2)cc1",
    "QUAL": "=",
    "solubility (µg/mL)": 10.6
  },
  {
    "MOLECULE": "CN(C)CCOc1ccc(-c2cnc3c(-c4ccc(S(N)(=O)=O)c5ccccc45)cnn3c2)cn1",
    "QUAL": "<",
    "solubility (µg/mL)": 1
  },
  {
    "MOLECULE": "NS(=O)(=O)c1ccc(-c2cnn3cc(-c4ccc(N5CCNCC5)nc4)cnc23)c2ccccc12",
    "QUAL": "=",
    "solubility (µg/mL)": 1.4
  }
]

----------
# ASSAY_PROTOCOL: AUC (0 to infinity) in C57BL/6 mouse at 3 mg/kg, po
# Assay type: ADME, organism-based
# Parameters: dose 3 mg/kg, time infinity, route oral
# CONDITIONS_USED: in vivo
REPORTED_ENDPOINT: AUC(0-inf) (ng·h/mL)

[
  {
    "MOLECULE": "CC(c1ccc(-c2cnc3c(-c4ccc(S(N)(=O)=O)c5ccccc45)cnn3c2)cc1)N1CCCC1 (stereo unspecified)",
    "NUMERIC_VALUE": 782
  }
]

----------
# ASSAY_PROTOCOL: Oral bioavailability in C57BL/6 mouse at 3 mg/kg
# Assay type: ADME, organism-based
# CONDITIONS_USED: in vivo

[
  {
    "MOLECULE": "CC(c1ccc(-c2cnc3c(-c4ccc(S(N)(=O)=O)c5ccccc45)cnn3c2)cc1)N1CCCC1 (stereo unspecified)",
    "bioavailability (%)": 24
  }
]
